test: Tissue distribution after single oral dose; type: in vivo, mice; settings: KM, mouse, heart; 20 h; oral 500 mg·kg^−1, female mice; read-out: Concentration in Heart
result type: concentration at 20 h

>>> readout_value("CC(C)=C/C=C/[C@H](C)[C@H]1CC[C@]2(C)C[C@@H]3C(C)=CC(=O)[C@H]3/C(C=O)=C\\C[C@@H]12 [MHO7, 6-epi-ophiobolin G]")
"40 ng/g"

====

Test: Tissue distribution after single oral dose
Assay type: in vivo, mice
Conditions: KM, mouse, muscle (hind limb); 12 h; oral 500 mg·kg^−1, female mice; read-out: Concentration in Muscle
Method: The animals and treatment methods were the same as in the pharmacokinetic studies. Afterwards, the biological samples (n = 6 per group) were collected at 1, 4, 8, 12, 20, and 30 h, and the tissues including heart, liver, spleen, lung, kidney, stomach, intestine, brain, muscle (hind limb), fat (white adipose tissue ), reproductive organs (uterus, fallopian tube and ovary) stomach and its contents, and intestine and its contents, and the blood samples were simultaneously collected. […]
result type: concentration at 12 h (ng/g)

>>> readout_value("CC(C)=C/C=C/[C@H](C)[C@H]1CC[C@]2(C)C[C@@H]3C(C)=CC(=O)[C@H]3/C(C=O)=C\\C[C@@H]12 [MHO7, 6-epi-ophiobolin G]")
1420

====

experiment: Tissue distribution after single oral dose; assay type: in vivo, mice; settings: KM, mouse, reproductive organs (uterus, fallopian tube and ovary); 12 h; oral 500 mg·kg^−1, female mice; read-out: Concentration in Reproductive organs
result type: concentration at 12 h (ng/g)

>>> readout_value("CC(C)=C/C=C/[C@H](C)[C@H]1CC[C@]2(C)C[C@@H]3C(C)=CC(=O)[C@H]3/C(C=O)=C\\C[C@@H]12 [MHO7, 6-epi-ophiobolin G]")
13700

====

experiment: Tissue distribution after single oral dose; assay type: in vivo, mice; details: KM, mouse, fat (white adipose tissue); 4 h; oral 500 mg·kg^−1, female mice; read-out: Concentration in Fat
result type: concentration at 4 h (ng/g)

>>> readout_value("CC(C)=C/C=C/[C@H](C)[C@H]1CC[C@]2(C)C[C@@H]3C(C)=CC(=O)[C@H]3/C(C=O)=C\\C[C@@H]12 [MHO7, 6-epi-ophiobolin G]")
5200

====

experiment: Tissue distribution after single oral dose; format: in vivo, mice; settings: KM, mouse, lung; 20 h; oral 500 mg·kg^−1, female mice; read-out: Concentration in Lung
result type: concentration at 20 h (ng/g)

>>> readout_value("CC(C)=C/C=C/[C@H](C)[C@H]1CC[C@]2(C)C[C@@H]3C(C)=CC(=O)[C@H]3/C(C=O)=C\\C[C@@H]12 [MHO7, 6-epi-ophiobolin G]")
160

====

experiment: Log D by shaking flask method (n-octanol/phosphate buffer); assay type: physicochemical; settings: 37 °C, octanol/PBS pH 5.0, 48 h, read-out: Log P/D Value O/P (pH 5.0)
result type: logD at 48 h

>>> readout_value("CC(C)=C/C=C/[C@H](C)[C@H]1CC[C@]2(C)C[C@@H]3C(C)=CC(=O)[C@H]3/C(C=O)=C\\C[C@@H]12 [MHO7, 6-epi-ophiobolin G]")
0.93

====

assay: Tissue distribution after single oral dose; assay type: in vivo, mice; conditions: KM, mouse, muscle (hind limb); 8 h; oral 500 mg·kg^−1, female mice; read-out: Concentration in Muscle
result type: concentration at 8 h (ng/g)

>>> readout_value("CC(C)=C/C=C/[C@H](C)[C@H]1CC[C@]2(C)C[C@@H]3C(C)=CC(=O)[C@H]3/C(C=O)=C\\C[C@@H]12 [MHO7, 6-epi-ophiobolin G]")
640

====

assay: Tissue distribution after single oral dose; assay type: in vivo, mice; conditions: KM, mouse, liver; 1 h; oral 500 mg·kg^−1, female mice; read-out: Concentration in Liver
result type: concentration at 1 h (ng/g)

>>> readout_value("CC(C)=C/C=C/[C@H](C)[C@H]1CC[C@]2(C)C[C@@H]3C(C)=CC(=O)[C@H]3/C(C=O)=C\\C[C@@H]12 [MHO7, 6-epi-ophiobolin G]")
3010

====

Assay: Tissue distribution after single oral dose
Assay type: in vivo, mice
Details: KM, mouse, muscle (hind limb); 4 h; oral 500 mg·kg^−1, female mice; read-out: Concentration in Muscle
Experimental: The animals and treatment methods were the same as in the pharmacokinetic studies. Afterwards, the biological samples (n = 6 per group) were collected at 1, 4, 8, 12, 20, and 30 h, and the tissues including heart, liver, spleen, lung, kidney, stomach, intestine, brain, muscle (hind limb), fat (white adipose tissue ), reproductive organs (uterus, fallopian tube and ovary) stomach and its contents, and intestine and its contents, and the blood samples were simultaneously collected. […]
result type: concentration at 4 h (ng/g)

>>> readout_value("CC(C)=C/C=C/[C@H](C)[C@H]1CC[C@]2(C)C[C@@H]3C(C)=CC(=O)[C@H]3/C(C=O)=C\\C[C@@H]12 [MHO7, 6-epi-ophiobolin G]")
970

====

Assay: Log D by shaking flask method (n-octanol/phosphate buffer)
Type: physicochemical
Settings: 37 °C, octanol/PBS pH 1.5, 36 h, read-out: Log P/D Value O/P (pH 1.5)
Description: An HPLC system (Shimadzu, Japan) was equipped with a LC-20AD binary pump system, a SIL-20AD auto sampler, a CBM-20A system controller, and a CTO-20A oven. […] The phases of distilled water and n-octanol were saturated with each other by shaking for 48 h with 250 rpm in a shaking water bath prior to use. […] The samples of both phases were collected at 0, 4, 8, 12, 24, 30, 36 and 48 h, diluted with methanol (1:1, V) and determined by HPLC with the detection wavelength of 234 nm. […]
result type: logD at 36 h

>>> readout_value("CC(C)=C/C=C/[C@H](C)[C@H]1CC[C@]2(C)C[C@@H]3C(C)=CC(=O)[C@H]3/C(C=O)=C\\C[C@@H]12 [MHO7, 6-epi-ophiobolin G]")
1.12

====

assay: Log D by shaking flask method (n-octanol/phosphate buffer); type: physicochemical; conditions: 37 °C, octanol/PBS pH 5.0, 30 h, read-out: Log P/D Value O/P (pH 5.0)
result type: logD at 30 h

>>> readout_value("CC(C)=C/C=C/[C@H](C)[C@H]1CC[C@]2(C)C[C@@H]3C(C)=CC(=O)[C@H]3/C(C=O)=C\\C[C@@H]12 [MHO7, 6-epi-ophiobolin G]")
0.95

====

experiment: Tissue distribution after single oral dose; format: in vivo, mice; settings: KM, mouse, spleen; 20 h; oral 500 mg·kg^−1, female mice; read-out: Concentration in Spleen
result type: concentration at 20 h (ng/g)

>>> readout_value("CC(C)=C/C=C/[C@H](C)[C@H]1CC[C@]2(C)C[C@@H]3C(C)=CC(=O)[C@H]3/C(C=O)=C\\C[C@@H]12 [MHO7, 6-epi-ophiobolin G]")
310

====

assay: Log P by shaking flask method (n-octanol/water); assay type: physicochemical; details: pH 7, 37 °C, octanol/ddH2O, 30 h, read-out: Log P/D Value O/W (pH 7.0)
result type: logP at 30 h

>>> readout_value("CC(C)=C/C=C/[C@H](C)[C@H]1CC[C@]2(C)C[C@@H]3C(C)=CC(=O)[C@H]3/C(C=O)=C\\C[C@@H]12 [MHO7, 6-epi-ophiobolin G]")
2.47

====

assay: Log D by shaking flask method (n-octanol/phosphate buffer); format: physicochemical; settings: 37 °C, octanol/PBS pH 7.4, 24 h, read-out: Log P/D Value O/P (pH 7.4)
result type: logD at 24 h

>>> readout_value("CC(C)=C/C=C/[C@H](C)[C@H]1CC[C@]2(C)C[C@@H]3C(C)=CC(=O)[C@H]3/C(C=O)=C\\C[C@@H]12 [MHO7, 6-epi-ophiobolin G]")
1.29

====

assay: Tissue distribution after single oral dose; type: in vivo, mice; settings: female, KM, mouse, liver; over 1-30 h; oral 500 mg·kg^−1; read-out: tissue/plasma concentration ratio range, liver
result type: Kp

>>> readout_value("CC(C)=C/C=C/[C@H](C)[C@H]1CC[C@]2(C)C[C@@H]3C(C)=CC(=O)[C@H]3/C(C=O)=C\\C[C@@H]12 [MHO7, 6-epi-ophiobolin G]")
"0.18 to 17.4"

====

assay: Log P by shaking flask method (n-octanol/water); assay type: physicochemical; conditions: pH 7, 37 °C, octanol/ddH2O, 24 h, read-out: Log P/D Value O/W (pH 7.0)
result type: logP at 24 h

>>> readout_value("CC(C)=C/C=C/[C@H](C)[C@H]1CC[C@]2(C)C[C@@H]3C(C)=CC(=O)[C@H]3/C(C=O)=C\\C[C@@H]12 [MHO7, 6-epi-ophiobolin G]")
2.49

====

test: Tissue distribution after single oral dose; format: in vivo, mice; settings: KM, mouse, reproductive organs (uterus, fallopian tube and ovary); 4 h; oral 500 mg·kg^−1, female mice; read-out: Concentration in Reproductive organs
result type: concentration at 4 h (ng/g)

>>> readout_value("CC(C)=C/C=C/[C@H](C)[C@H]1CC[C@]2(C)C[C@@H]3C(C)=CC(=O)[C@H]3/C(C=O)=C\\C[C@@H]12 [MHO7, 6-epi-ophiobolin G]")
2290
